The reported measurements were obtained from the supplement of paper PMC8975748.

test system: Saccharomyces cerevisiae BY4741 SeMeCo community; test: z-score of subpopulation abundance vs DMSO median, subpopulation auxotrophic for H; higher = larger share of this subpopulation than in DMSO controls; details: 10 µM; 24 h; SM minimal medium; subpopulation (auxotrophy): H
Where a name gives a salt, the structure may show the parent alone.
Recorded z-score of subpopulation abundance determines the label; the label ranges are c1: < -0.3; c2: ≥ -0.3 and < 0.2; c3: ≥ 0.2

Any idea which band CC[C@H]1CN2CC[C@]3(C(=O)Nc4ccccc43)[C@@H]2C[C@@H]1/C(=C\OC)C(=O)OC is in?
c2

Any idea which band O=c1[nH]c2ccccc2n1CCCN1CCC(n2c(=O)[nH]c3cc(Cl)ccc32)CC1 is in?
c3

Any idea which band Oc1cccc2cccnc12 [8-Hydroxyquinoline] is in?
c3

Any idea which band Cc1cc(C(C#N)c2ccc(Cl)cc2)c(Cl)cc1NC(=O)c1cc(I)cc(I)c1O (stereo unspecified) is in?
c2

Any idea which band CN(C)C(=O)Oc1ccc[n+](C)c1 [Pyridostigmine Bromide] is in?
c2

Any idea which band CCC1=C[C@H]2CN3CCc4c([nH]c5ccccc45)[C@](C(=O)OC)(C2)[C@H]13 is in?
c1

Any idea which band CCCCCCCCCCCCCCCC[n+]1ccccc1 [Cetylpyridinium Chloride] is in?
c3

Any idea which band COc1ccc(C(CN(C)C)C2(O)CCCCC2)cc1 (stereo unspecified) [Venlafaxine HCl] is in?
c1

Any idea which band C[C@H]1O[C@H](O[C@H]2[C@H](O)[C@@H](O)[C@@H](O)[C@H](O)[C@@H]2O)[C@@H](N)C[C@@H]1NC(=N)C(=O)O [Kasugamycin hydrochloride] is in?
c3

Any idea which band O=C(O[C@H]1C[N+]2(CCCOc3ccccc3)CCC1CC2)C(O)(c1cccs1)c1cccs1 [Aclidinium Bromide] is in?
c1

Any idea which band COC(=O)C1=CCCN(C)C1 is in?
c3

Any idea which band CCN(C)C(=O)Oc1cccc([C@H](C)N(C)C)c1 [Rivastigmine Tartrate] is in?
c2

Any idea which band CCOC(=O)Nc1ccc(NCc2ccc(F)cc2)cc1N [Retigabine] is in?
c3

Any idea which band CN1[C@@H]2CC[C@H]1C[C@@H](OC(=O)[C@H](CO)c1ccccc1)C2 is in?
c1

Any idea which band C[N+]12CCC(CC1)C(OC(=O)C(O)(c1ccccc1)c1ccccc1)C2 (stereo unspecified) [Clidinium Bromide] is in?
c1

Any idea which band N[C@@H]1C[C@H]1c1ccccc1 [Tranylcypromine (2-PCPA) HCl] is in?
c1

Any idea which band Cc1cc(O)ccc1Cl is in?
c1

Any idea which band CCN(CC)CCOC(=O)C(O)(c1ccccc1)c1ccccc1 [Benactyzine hydrochloride] is in?
c2

Any idea which band CN(C)[C@@H]1C(=O)C(C(N)=O)=C(O)[C@@]2(O)C(=O)C3=C(O)c4c(O)cccc4[C@@](C)(O)[C@H]3C[C@@H]12 [Tetracycline HCl] is in?
c3

Any idea which band CN1c2ccccc2C(NCCCCCCC(=O)O)c2ccc(Cl)cc2S1(=O)=O (stereo unspecified) [Tianeptine sodium] is in?
c2

Any idea which band CC[N+](C)(CC)CCOC(=O)C(O)(c1ccccc1)c1ccccc1 [Methylbenactyzine Bromide] is in?
c2

Any idea which band C[CH2][Hg][S]c1ccccc1C(=O)[O-].[Na+] is in?
c3

Any idea which band CNC1CC(N)C(O)C(OC2OC(CO)C(O)C3OC4(OC(C(N)CO)C(O)C(O)C4O)OC23)C1O (stereo unspecified) is in?
c1

Any idea which band Nc1nc(N)nc(NC2CC2)n1 is in?
c2

Any idea which band CC1(C)SC2C(N)C(=O)N2C1C(=O)O (stereo unspecified) is in?
c3

Any idea which band O=C(O[C@H]1C[C@H]2CC[C@@H](C1)[N+]21CCCC1)C(O)(c1ccccc1)c1ccccc1 [Trospium chloride] is in?
c1

Any idea which band CCOC(=O)Nc1ccc(NCc2ccc(F)cc2)cc1N [Retigabine 2HCl] is in?
c3

Any idea which band Nc1ccncc1 is in?
c2

Any idea which band CN[C@@H]1[C@@H](O)[C@@H](O[C@@H]2[C@@H](O)[C@H](O[C@H]3O[C@H](CN)CC[C@H]3N)[C@@H](N)C[C@H]2N)OC[C@]1(C)O.CN[C@@H]1[C@@H](O)[C@@H](O[C@@H]2[C@@H](O)[C@H](O[C@H]3O[C@H]([C@@H](C)N)CC[C@H]3N)[C@@H](N)C[C@H]2N)OC[C@]1(C)O.CN[C@@H]1[C@@H](O)[C@@H](O[C@@H]2[C@@H](O)[C@H](O[C@H]3O[C@H]([C@@H](C)NC)CC[C@H]3N)[C@@H](N)C[C@H]2N)OC[C@]1(C)O [Gentamicin Sulfate] is in?
c2

Any idea which band CC[C@H]1[C@@H]2C[C@H]3[C@@H]4N(C)c5ccccc5[C@]45C[C@@H]([C@@H]2[C@H]5O)N3[C@@H]1O is in?
c1

Any idea which band CCCN1C[C@H](CSC)C[C@@H]2c3cccc4[nH]cc(c34)C[C@H]21 [Pergolide Mesylate] is in?
c2
